# test.details: Drug degradation in rat plasma assessed as formamidine hydrolysis after 4 hrs
# Format: ADME, cell-free
# condition.description: read-out: Drug degradation
measured.quantity: metabolised at 4 h (%)
Report the figure in % without appending any unit label.

Input line: I'd like to know its metabolised at 4 h. The compound in question is `O=C(N[C@@H]1c2cc(/N=C/N3CCCC3)ccc2C[C@H]1O)c1ccc(Br)cc1`
Output line: 50

Input line: Can you look up the measured metabolised at 4 h of `C/C(=N\c1ccc2c(c1)[C@@H](NC(=O)c1ccc(Br)cc1)[C@H](O)C2)N1CCCCC1` for me?
Output line: 5

====

# subject.of.test: Muscarinic acetylcholine receptor M2 (Homo sapiens) (UniProt P08172)
# Sequence (whole entry): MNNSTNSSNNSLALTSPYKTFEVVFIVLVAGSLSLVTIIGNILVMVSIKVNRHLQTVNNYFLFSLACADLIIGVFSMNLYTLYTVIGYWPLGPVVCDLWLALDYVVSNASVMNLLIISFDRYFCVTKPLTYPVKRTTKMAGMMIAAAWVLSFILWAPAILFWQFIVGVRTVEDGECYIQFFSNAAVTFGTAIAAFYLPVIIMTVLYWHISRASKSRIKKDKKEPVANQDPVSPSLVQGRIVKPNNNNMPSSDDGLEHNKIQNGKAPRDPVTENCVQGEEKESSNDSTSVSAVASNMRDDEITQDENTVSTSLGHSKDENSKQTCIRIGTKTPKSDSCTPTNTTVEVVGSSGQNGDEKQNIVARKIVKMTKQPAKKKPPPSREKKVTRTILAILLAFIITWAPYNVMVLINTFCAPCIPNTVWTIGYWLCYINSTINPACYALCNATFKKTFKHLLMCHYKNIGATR
# test.details: Agonist activity at human muscarinic M2 receptor expressed in CHO cells after 30 mins by GTPgamma35S binding assay relative to oxotremorine-M
# Format: functional, cell-based
measured.quantity: Efficacy (%)
Write the value in % as a bare number.

compound.structure.string: C/C(=N\c1ccc2c(c1)[C@@H](NC(=O)c1ccc(Br)cc1)[C@H](O)C2)NCCc1ccc(F)cc1
Efficacy [%]: 38.5

Input line: For `C/C(=N\c1ccc2c(c1)[C@@H](NC(=O)c1ccc(Br)cc1)[C@H](O)C2)NCc1ccc(F)cc1` , what is its reported Efficacy?
Output line: 31.8

Input line: Name the reported Efficacy value associated with the molecule `C/C(=N\c1ccc2c(c1)[C@@H](NC(=O)c1ccc(Br)cc1)[C@H](O)C2)NCc1cccc(F)c1`
Output line: 26.6

Input line: // Efficacy lookup, key: `C/C(=N\c1ccc2c(c1)[C@@H](NC(=O)c1ccc(Br)cc1)[C@H](O)C2)NCc1ccccc1F`
Output line: 33.6

====

# subject.of.test: Muscarinic acetylcholine receptor M3 (Homo sapiens)
# test.details: Agonist activity at human muscarinic M3 receptor expressed in CHO cells after 30 mins by GTPgamma35S binding assay relative to acetylcholine
# Format: functional, cell-based
# Sequence (P20309 whole entry, looked up): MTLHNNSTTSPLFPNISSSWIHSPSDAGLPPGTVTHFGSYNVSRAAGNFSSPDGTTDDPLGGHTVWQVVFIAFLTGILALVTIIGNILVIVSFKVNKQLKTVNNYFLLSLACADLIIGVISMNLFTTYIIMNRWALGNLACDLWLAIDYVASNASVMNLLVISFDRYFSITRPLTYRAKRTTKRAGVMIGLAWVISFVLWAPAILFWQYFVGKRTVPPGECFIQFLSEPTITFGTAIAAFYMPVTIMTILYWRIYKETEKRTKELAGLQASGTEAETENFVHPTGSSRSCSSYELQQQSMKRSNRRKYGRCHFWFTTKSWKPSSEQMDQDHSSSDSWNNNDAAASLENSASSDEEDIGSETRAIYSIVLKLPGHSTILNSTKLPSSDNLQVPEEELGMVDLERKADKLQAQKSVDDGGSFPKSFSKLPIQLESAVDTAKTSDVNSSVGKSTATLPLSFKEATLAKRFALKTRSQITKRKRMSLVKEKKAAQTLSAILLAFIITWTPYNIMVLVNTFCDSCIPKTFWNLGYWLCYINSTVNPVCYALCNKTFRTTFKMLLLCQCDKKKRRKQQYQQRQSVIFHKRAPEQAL
Entries and their Efficacy values follow.
Could you give me the number in %? Just the number is fine.

Examples from the recorded data:
compound.structure.string: CO/N=C(\C#N)[C@H]1CN2CCC1CC2
Efficacy [%]: 28.3
//
compound.structure.string: CC(=O)OCC[N+](C)(C)C
Efficacy [%]: 117

Continue with the next compound.
Input line: What value of Efficacy has been recorded for this entry: `C#CCO[C@H]1CN2CCC1CC2`
Output line: 26.1

====

# test.details: Dissociation constant, pKa of the compound
# Format: physicochemical
Reported pKa by item:

Record excerpt, results attached:
compound.structure.string: C/C(=N\c1ccc2c(c1)[C@@H](NC(=O)c1ccc(Br)cc1)[C@H](O)C2)Nc1ccc(F)cc1
pKa: 8.2
//
compound.structure.string: C/C(=N\c1ccc2c(c1)[C@@H](NC(=O)c1ccc(Br)cc1)[C@H](O)C2)NCc1ccc(F)cc1
pKa: 8.49
//
compound.structure.string: C/C(=N\c1ccc2c(c1)[C@@H](NC(=O)c1ccc(-c3ccccc3)cc1)[C@H](O)C2)N(C)Cc1ccc(F)cc1
pKa: 8.3

Continue with the compound presented below.
Input line: Could you share which pKa value was measured for `CN1CCCC/C1=N\c1ccc2c(c1)[C@@H](NC(=O)c1ccc(Br)cc1)[C@H](O)C2` ?
Output line: 9.9

====

# subject.of.test: Muscarinic acetylcholine receptor M4 (Homo sapiens)
# Sequence (P08173 whole entry): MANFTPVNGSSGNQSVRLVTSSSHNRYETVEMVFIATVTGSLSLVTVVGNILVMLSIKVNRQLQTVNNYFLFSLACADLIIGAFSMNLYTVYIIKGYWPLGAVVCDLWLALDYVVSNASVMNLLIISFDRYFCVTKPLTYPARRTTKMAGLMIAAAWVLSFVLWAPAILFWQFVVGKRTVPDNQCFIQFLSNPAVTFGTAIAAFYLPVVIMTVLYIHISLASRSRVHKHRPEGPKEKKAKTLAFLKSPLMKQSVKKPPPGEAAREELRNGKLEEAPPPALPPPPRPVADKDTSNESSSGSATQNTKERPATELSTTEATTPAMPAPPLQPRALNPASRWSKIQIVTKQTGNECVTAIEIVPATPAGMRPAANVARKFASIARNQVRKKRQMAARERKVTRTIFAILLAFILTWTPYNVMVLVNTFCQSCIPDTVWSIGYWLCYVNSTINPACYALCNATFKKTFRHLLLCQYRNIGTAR
# test.details: Agonist activity at human muscarinic M4 receptor expressed in CHO cells after 30 mins by GTPgamma35S binding assay
Listing of entries alongside the reported pEC50.
Just so you know, pEC50 here is -log10 of the concentration in molar units; reply with that number alone.

Input line: Fill blank: measured pEC50 of the molecule `C/C(=N\c1ccc2c(c1)[C@@H](NC(=O)c1ccc(-c3ccccc3)cc1)[C@H](O)C2)N(C)Cc1ccc(F)cc1` is ____.
Output line: 5.97

Input line: Entry `C/C(=N\c1ccc2c(c1)[C@@H](NC(=O)c1ccc(Cl)cc1)[C@H](O)C2)N(C)Cc1ccc(F)cc1` has what pEC50?
Output line: 6.39

Input line: Please give the measured pEC50 for this molecule: `C/C(=N\c1ccc2c(c1)[C@@H](NC(=O)c1ccc(C(F)(F)F)cc1)[C@H](O)C2)N(C)Cc1ccc(F)cc1`
Output line: 6.41

Input line: Given the molecule `C/C(=N\c1ccc2c(c1)[C@@H](NC(=O)c1ccc(Br)cc1)[C@H](O)C2)NCc1cccc(F)c1` , what is its reported pEC50?
Output line: 6.45

Input line: // returns reported pEC50 for input `CN1CCCC/C1=N\c1ccc2c(c1)[C@@H](NC(=O)c1ccc(Br)cc1)[C@H](O)C2`
Output line: 6.95

Input line: Suppose we examine the molecule CO/N=C(\C#N)[C@H]1CN2CCC1CC2 [SABCOMELINE] ; what pEC50 value has been reported?
Output line: 6.67

Input line: Report pEC50 for `COc1ccc(CCN/C(C)=N/c2ccc3c(c2)[C@@H](NC(=O)c2ccc(Br)cc2)[C@H](O)C3)cc1` please.
Output line: 5.87

Input line: Any idea what its pEC50 is? The molecule is `C/C(=N\c1ccc2c(c1)[C@@H](NC(=O)c1ccc(Br)cc1)[C@H](O)C2)N(C)Cc1ccc(F)cc1`
Output line: 5.43

====

# test.details: Drug uptake in rat whole brain at 10 mg/kg, po measured at 3 hrs
# Assay type: ADME, organism-based
# condition.description: read-out: Drug uptake
concentration at 3 h values for the compounds below.
# unit: ng/g | format: bare number

Examples with their reported concentration at 3 h follow.
compound.structure.string: C/C(=N\c1ccc2c(c1)[C@@H](NC(=O)c1ccc(-c3ccccc3)cc1)[C@H](O)C2)N(C)Cc1ccc(F)cc1
endpoint.unit: ng/g
value.measured: 141
//
compound.structure.string: C/C(=N\c1ccc2c(c1)[C@@H](NC(=O)c1ccc(Br)cc1)[C@H](O)C2)Nc1ccc(F)cc1
endpoint.unit: ng/g
value.measured: 147

Input line: Endpoint output: concentration at 3 h of `C/C(=N\c1ccc2c(c1)[C@@H](NC(=O)c1ccc(Br)cc1)[C@H](O)C2)N(C)c1ccc(F)cc1` . Value?
Output line: 891

Input line: What measured concentration at 3 h goes with `C/C(=N\c1ccc2c(c1)[C@@H](NC(=O)c1ccc(Br)cc1)[C@H](O)C2)NCc1ccc(F)cc1` ?
Output line: 64

====

# subject.of.test: UniProtKB P20309
# test.details: Agonist activity at human muscarinic M3 receptor expressed in CHO cells after 30 mins by GTPgamma35S binding assay
# Format: functional, cell-based
# condition.description: cho
# Sequence (P20309 whole entry): as the sequence (P20309 whole entry, looked up) above
measured.quantity: EC50

Below: 7 compounds and their reported EC50.
compound.structure.string: C/C(=N\c1ccc2c(c1)[C@@H](NC(=O)c1ccc(Br)cc1)[C@H](O)C2)NCc1ccc(F)cc1
EC50: Not Active
--
compound.structure.string: C/C(=N\c1ccc2c(c1)[C@@H](NC(=O)c1ccc(F)cc1)[C@H](O)C2)N(C)Cc1ccc(F)cc1
EC50: Not Active
--
compound.structure.string: COc1ccccc1CN/C(C)=N/c1ccc2c(c1)[C@@H](NC(=O)c1ccc(Br)cc1)[C@H](O)C2
EC50: Not Active
--
compound.structure.string: O=C(N[C@@H]1c2cc(/N=C(/Nc3ccc(F)cc3)C(F)(F)F)ccc2C[C@H]1O)c1ccc(Br)cc1
EC50: Not Active
--
compound.structure.string: C/C(=N\c1ccc2c(c1)[C@@H](NC(=O)c1ccc(Br)cc1)[C@H](O)C2)N(C)Cc1ccc(F)cc1
EC50: Not Active
--
compound.structure.string: C/C(=N\c1ccc2c(c1)[C@@H](NC(=O)c1ccc(Br)cc1)[C@H](O)C2)NCc1ccccc1F
EC50: Not Active
--
compound.structure.string: C/C(=N\c1ccc2c(c1)[C@@H](NC(=O)c1ccc(Br)cc1)[C@H](O)C2)NCCc1ccc(F)cc1
EC50: Not Active

Moving on to the next compound.
Input line: Looking for the measured EC50 of `C/C(=N\c1ccc2c(c1)[C@@H](NC(=O)c1ccc(Br)cc1)[C@H](O)C2)N(C)CCc1ccc(F)cc1` , can you help?
Output line: Not Active
